Tested on: HCT-15
test_summary: Cytotoxicity against multidrug-resistant human HCT15 cells by thymidine incorporation assay
Type: functional, cell-based
Peptide text beside a SMILES is read from it.
test_readout: pIC50
Answers are plain numbers, as −log10 of the molar value.

Examples from the recorded data:
Nc1ccn([C@@H]2O[C@H](CO)[C@@H](O)C2(F)F)c(=O)n1	4.93
CC(C)C[C@@H]1NC(=O)[C@H](Cc2ccccc2)NC(=O)[C@H](CC(C)C)NC(=O)[C@@H](C(C)C)N(C)C(=O)[C@H](CC2CCCCC2)NC1=O (HELM PEPTIDE1{[Cha].[CC(C)[C@H](C(=O)[*:2])N(C)[*:1]].L.F.L}$PEPTIDE1,PEPTIDE1,1:R1-5:R2$$$V2.0)	6.10

Consider the additional molecule presented here.
Input CC(C)C[C@@H]1NC(=O)[C@H](Cc2ccccc2)NC(=O)[C@H](CC(C)C)NC(=O)[C@H](C(C)C)NC(=O)[C@H](CC(C)C)NC1=O (HELM PEPTIDE1{F.L.L.V.L}$PEPTIDE1,PEPTIDE1,1:R1-5:R2$$$V2.0) . Output pIC50: 4.34

----------
Could you please report measured inhibition at 1 µM for the items listed next?
Tested on: HCT-15
test_summary: Cytotoxicity against multidrug-resistant human HCT15 cells at 1 uM by thymidine incorporation assay
Format: functional
Square brackets hold non-standard residues; d marks the D form. Peptide text beside a SMILES is read from it. * marks the point of attachment. Cbz = O=C(OCc1ccccc1)*
Give bare numbers, in %.

Examples from the recorded data:
CC(C)C[C@@H]1NC(=O)[C@H](C(C)C)NC(=O)[C@H](CC(C)C)NC(=O)[C@H](CC(C)C)N(C)C(=O)[C@H](Cc2ccccc2)NC1=O (HELM PEPTIDE1{F.[meL].L.V.L}$PEPTIDE1,PEPTIDE1,1:R1-5:R2$$$V2.0)	35
CC(C)C[C@@H]1NC(=O)[C@H](C(C)C)NC(=O)[C@H](CC(C)C)N(C)C(=O)[C@@H](CC(C)C)NC(=O)[C@@H](Cc2ccccc2)NC1=O (HELM PEPTIDE1{[dL].[meL].V.L.[dF]}$PEPTIDE1,PEPTIDE1,1:R1-5:R2$$$V2.0)	42
CC(C)C[C@@H]1NC(=O)[C@H](Cc2ccccc2)NC(=O)[C@H](CC(C)C)NC(=O)[C@H](C(C)C)NC(=O)[C@H](CC(C)C)NC1=O (HELM PEPTIDE1{F.L.L.V.L}$PEPTIDE1,PEPTIDE1,1:R1-5:R2$$$V2.0)	10
CC(C)[C@@H]1NC(=O)[C@H](Cc2ccccc2)NC(=O)[C@@H](CO)NC(=O)[C@H](C(C)C)NC(=O)[C@H](C(C)C)NC1=O (HELM PEPTIDE1{F.V.V.V.[dS]}$PEPTIDE1,PEPTIDE1,1:R1-5:R2$$$V2.0)	18

I'm hoping you can list inhibition at 1 µM for every molecule here, please.
1. CC(C)C[C@@H]1NC(=O)[C@H](Cc2ccccc2)NC(=O)[C@H](CC(C)C)NC(=O)[C@@H](C(C)C)NC(=O)[C@H](CCCCNC(=O)OCc2ccccc2)NC1=O (cyclo(FLK(Cbz)[dV]L))
2. CC(C)C[C@@H]1NC(=O)[C@H](CC(C)C)NC(=O)[C@@H](Cc2ccccc2)NC(=O)[C@@H](CC(C)C)NC(=O)[C@@H](C(C)C)NC1=O (HELM PEPTIDE1{L.L.[dV].[dL].[dF]}$PEPTIDE1,PEPTIDE1,1:R1-5:R2$$$V2.0)
3. CC[C@H]1NC(=O)[C@H](CC(C)C)NC(=O)[C@H](CC(C)C)NC(=O)[C@H](Cc2ccccc2)NC(=O)[C@H](CC(C)C)NC1=O (HELM PEPTIDE1{F.L.L.[CC[C@@H](N[*:1])C(=O)[*:2]].L}$PEPTIDE1,PEPTIDE1,1:R1-5:R2$$$V2.0)
4. CC(C)C[C@@H]1NC(=O)[C@H](Cc2ccccc2)NC(=O)[C@H](CC(C)C)N(C)C(=O)[C@H](C(C)C)N(C)C(=O)[C@H](CC(C)C)NC1=O (HELM PEPTIDE1{F.L.L.[meV].[meL]}$PEPTIDE1,PEPTIDE1,1:R1-5:R2$$$V2.0)
5. CC(C)C[C@@H]1NC(=O)[C@H](Cc2ccccc2)NC(=O)[C@@H](Cc2ccccc2)N(C)C(=O)[C@H](C(C)C)NC(=O)[C@H](CC(C)C)NC1=O

Output:
1. 3
2. 35
3. 20
4. 0
5. 57

Data origin, for the record: ChEMBL document CHEMBL1140733
